- assay explanation: Binding affinity against PCP receptor using [3H]TCP as radioligand.
recorded metric: Ki (nM)
Give bare numbers, in nM.

State recorded Ki for all listed compounds.
1. C[C@@H]1[C@@H]2Cc3ccc(O)cc3[C@]1(C)CCN2
2. C[C@H]1[C@H]2Cc3ccc(O)cc3[C@@]1(C)CCN2Cc1ccccc1

30
6500

Item C[C@H]1[C@H]2Cc3ccc(O)cc3[C@@]1(C)CCN2C has what recorded Ki? 1190

###

- assay explanation: Ratio of binding affinities of pcp receptor(ki(nM)) to sigma opioid receptor(ki(nM))
Lab note: cut-off is 70. Strictly less in Ratio is class 1. Exactly 70 or more is class 0.

Study these solved cases before continuing.
INSERT INTO results (molecule, classification) VALUES
  ('C[C@H]1[C@H]2Cc3ccc(O)cc3[C@@]1(C)CCN2CCCc1ccccc1', 'class 0'),
  ('C[C@@H]1[C@@H]2Cc3ccc(O)cc3[C@]1(C)CCN2CCCCc1ccccc1', 'class 0'),
  ('C[C@@H]1[C@@H]2Cc3ccc(O)cc3[C@]1(C)CCN2CCCCCc1ccccc1', 'class 0'),
  ('C[C@@H]1[C@@H]2Cc3ccc(O)cc3[C@]1(C)CCN2C/C=C/Cl', 'class 1'),
  ('C[C@@H]1[C@@H]2Cc3ccc(O)cc3[C@]1(C)CCN2CCCc1ccccc1', 'class 0'),
  ('CC(C)CCN1CC[C@]2(C)c3cc(O)ccc3C[C@@H]1[C@@H]2C', 'class 0'),
  ('C[C@@H]1[C@@H]2Cc3ccc(O)cc3[C@@]1(C)CCN2CCc1ccccc1', 'class 0'),
  ('C[C@H]1[C@H]2Cc3ccc(O)cc3[C@]1(C)CCN2CCc1ccccc1', 'class 1'),
  ('C[C@H]1[C@H]2Cc3ccc(O)cc3[C@@]1(C)CCN2CCCCCc1ccccc1', 'class 0'),
  ('CC(C)=CCN1CC[C@@]2(C)c3cc(O)ccc3C[C@@H]1[C@@H]2C', 'class 1');

Threshold test, Ratio < 70: C[C@@H]1[C@@H]2Cc3ccc(O)cc3[C@@]1(C)CN2CC1CC1 class 1
